# ASSAY_TARGET: CDK12 (Homo sapiens)
# Construct: endogenous in cells; host or cells: CAL-120 human breast cancer cells (DSMZ ACC 459)
# Sequence (Q9NYV4 whole entry): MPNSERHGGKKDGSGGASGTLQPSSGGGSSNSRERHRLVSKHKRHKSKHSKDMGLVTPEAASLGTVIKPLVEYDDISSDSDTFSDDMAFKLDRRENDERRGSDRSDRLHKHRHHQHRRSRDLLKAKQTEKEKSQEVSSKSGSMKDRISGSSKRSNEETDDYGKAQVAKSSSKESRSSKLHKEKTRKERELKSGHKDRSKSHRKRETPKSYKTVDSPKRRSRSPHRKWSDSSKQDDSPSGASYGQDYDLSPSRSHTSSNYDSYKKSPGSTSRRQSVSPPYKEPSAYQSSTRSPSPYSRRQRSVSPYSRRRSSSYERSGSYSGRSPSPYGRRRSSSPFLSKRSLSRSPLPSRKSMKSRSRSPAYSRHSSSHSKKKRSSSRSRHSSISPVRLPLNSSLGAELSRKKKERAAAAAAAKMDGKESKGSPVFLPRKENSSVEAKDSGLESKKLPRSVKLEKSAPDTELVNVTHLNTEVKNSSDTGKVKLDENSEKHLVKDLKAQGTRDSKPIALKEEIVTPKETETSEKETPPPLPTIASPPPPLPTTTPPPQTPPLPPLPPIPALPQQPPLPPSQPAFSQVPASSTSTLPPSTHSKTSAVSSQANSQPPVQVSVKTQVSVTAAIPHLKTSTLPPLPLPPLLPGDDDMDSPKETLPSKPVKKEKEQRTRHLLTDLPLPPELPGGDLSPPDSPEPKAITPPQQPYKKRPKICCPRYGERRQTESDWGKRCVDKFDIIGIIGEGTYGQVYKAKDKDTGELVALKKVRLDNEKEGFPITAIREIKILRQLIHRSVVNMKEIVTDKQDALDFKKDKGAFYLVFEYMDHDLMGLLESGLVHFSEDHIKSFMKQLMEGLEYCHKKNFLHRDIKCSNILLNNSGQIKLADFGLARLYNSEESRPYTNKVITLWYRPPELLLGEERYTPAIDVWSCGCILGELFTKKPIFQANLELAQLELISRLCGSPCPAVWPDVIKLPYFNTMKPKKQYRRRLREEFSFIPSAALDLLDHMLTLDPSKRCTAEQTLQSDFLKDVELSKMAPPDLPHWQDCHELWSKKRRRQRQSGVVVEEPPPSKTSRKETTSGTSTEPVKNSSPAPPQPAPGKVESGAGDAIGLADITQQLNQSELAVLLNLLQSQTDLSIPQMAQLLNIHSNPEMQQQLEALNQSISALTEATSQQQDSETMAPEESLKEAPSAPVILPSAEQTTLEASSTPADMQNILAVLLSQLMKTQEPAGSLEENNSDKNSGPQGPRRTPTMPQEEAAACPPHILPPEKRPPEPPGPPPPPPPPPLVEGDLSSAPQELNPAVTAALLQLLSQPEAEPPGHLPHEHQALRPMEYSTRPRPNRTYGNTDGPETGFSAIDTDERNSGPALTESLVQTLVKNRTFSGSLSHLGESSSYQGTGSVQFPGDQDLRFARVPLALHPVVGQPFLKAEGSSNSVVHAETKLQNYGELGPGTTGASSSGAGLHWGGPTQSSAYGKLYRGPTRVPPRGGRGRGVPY
# Sequence (O75909 whole entry partner): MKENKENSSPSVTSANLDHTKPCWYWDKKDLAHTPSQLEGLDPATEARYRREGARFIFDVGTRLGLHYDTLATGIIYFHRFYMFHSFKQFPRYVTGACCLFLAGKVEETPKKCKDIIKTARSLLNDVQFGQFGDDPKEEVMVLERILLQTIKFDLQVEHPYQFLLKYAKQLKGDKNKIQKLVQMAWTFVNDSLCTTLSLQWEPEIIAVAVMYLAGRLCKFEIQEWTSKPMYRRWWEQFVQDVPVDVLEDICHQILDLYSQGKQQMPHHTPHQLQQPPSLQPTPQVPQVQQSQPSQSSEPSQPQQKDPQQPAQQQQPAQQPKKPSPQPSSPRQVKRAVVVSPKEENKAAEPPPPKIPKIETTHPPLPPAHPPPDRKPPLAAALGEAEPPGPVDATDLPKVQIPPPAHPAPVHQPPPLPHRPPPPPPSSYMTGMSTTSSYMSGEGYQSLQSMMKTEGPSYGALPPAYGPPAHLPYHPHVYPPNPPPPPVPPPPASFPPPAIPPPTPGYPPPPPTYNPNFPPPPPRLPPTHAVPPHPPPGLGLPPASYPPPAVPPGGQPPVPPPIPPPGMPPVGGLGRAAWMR
# MEASUREMENT_NOTES: CDK12 nuclear protein level: immunofluorescence/high content analysis in CAL-120 cells
# Assay type: cell-based
# RECORDED_CONDITIONS: ratio of IC50 CDK12 hATP (2 mM ATP) to DC50 CDK12 (IF, CAL-120)
READOUT_TYPE: (IC50 CDK12 high ATP) to (Degradation DC50 CDK12) ratio

Exercise: Note down (IC50 CDK12 high ATP) to (Degradation DC50 CDK12) ratio recorded for O[C@H]1C[C@@H](n2nc(NCc3nc4ccccc4[nH]3)c3ncc(C4CC4)nc32)C1
Key: >7840

Exercise: Note down (IC50 CDK12 high ATP) to (Degradation DC50 CDK12) ratio recorded for COCCC(C)n1nc(NCc2nc3ccccc3[nH]2)c2ncc(C3CC3)nc21 (single isomer, unassigned; (+)) [Example 59]
Key: >618

Exercise: Note down (IC50 CDK12 high ATP) to (Degradation DC50 CDK12) ratio recorded for CN1CCCC(n2nc(NCc3nc4ccccc4[nH]3)c3ncc(C4CC4)nc32)CC1 (single isomer, unassigned) [Example 38]
Key: >1516

Exercise: Note down (IC50 CDK12 high ATP) to (Degradation DC50 CDK12) ratio recorded for COCCC(C)n1nc(NCc2nc3ccccc3[nH]2)c2ncc(C3CC3)nc21 (single isomer, unassigned; (-)) [Example 58]
Key: >735

Exercise: Note down (IC50 CDK12 high ATP) to (Degradation DC50 CDK12) ratio recorded for COc1cccc2[nH]c(CNc3nn(C4CCN(C)CC4)c4nc(C5CC5)cnc34)nc12
Key: >3284

Exercise: Note down (IC50 CDK12 high ATP) to (Degradation DC50 CDK12) ratio recorded for CN1CCC(n2nc(NCc3nc4cc(Cl)c(Cl)cc4[nH]3)c3ncc(C4CC4)nc32)CC1
Key: >4294

Exercise: Note down (IC50 CDK12 high ATP) to (Degradation DC50 CDK12) ratio recorded for Cc1c(F)ccc2[nH]c(CNc3nn(C4CCN(C)CC4)c4nc(C5CC5)cnc34)nc12
Key: >509

Exercise: Note down (IC50 CDK12 high ATP) to (Degradation DC50 CDK12) ratio recorded for CN1CCC(n2nc(NCc3nc4ccccc4[nH]3)c3ncc(C4CC4)nc32)CC1
Key: >2380

Exercise: Note down (IC50 CDK12 high ATP) to (Degradation DC50 CDK12) ratio recorded for CC(C)(O)CCn1nc(NCc2nc3ccccc3[nH]2)c2ncc(C3CC3)nc21
Key: >9202

Exercise: Note down (IC50 CDK12 high ATP) to (Degradation DC50 CDK12) ratio recorded for Cc1cccc2[nH]c(CNc3nn(C4CCOCC4)c4nc(C5CC5)cnc34)nc12
Key: >2312

Exercise: Note down (IC50 CDK12 high ATP) to (Degradation DC50 CDK12) ratio recorded for Fc1cccc2[nH]c(CNc3nn(C4CCOCC4)c4nc(C5CC5)cnc34)nc12
Key: 388

Exercise: Note down (IC50 CDK12 high ATP) to (Degradation DC50 CDK12) ratio recorded for CC1COCCC1n1nc(NCc2nc3ccccc3[nH]2)c2ncc(C3CC3)nc21 (racemic)
Key: >2322

Exercise: Note down (IC50 CDK12 high ATP) to (Degradation DC50 CDK12) ratio recorded for c1ccc2[nH]c(CNc3nn(C4CCOC4)c4nc(C5CC5)cnc34)nc2c1 (racemic) [Example 10]
Key: >4901

Exercise: Note down (IC50 CDK12 high ATP) to (Degradation DC50 CDK12) ratio recorded for OCC1(Cn2nc(NCc3nc4ccccc4[nH]3)c3ncc(C4CC4)nc32)CCC1
Key: >660

====

# ASSAY_TARGET: CDK12 (Homo sapiens)
# Construct: endogenous in cells; host or cells: CAL-120 human breast cancer cells (DSMZ ACC 459)
# MEASUREMENT_NOTES: CDK12 nuclear protein level: immunofluorescence/high content analysis in CAL-120 cells
# Assay type: cell-based
# RECORDED_CONDITIONS: CAL-120 cells; 24 h; nuclear CDK12 staining intensity; median; read-out: CDK12 degradation IF DC50 - [mol/l] (median)
Please respond with reported log10(DC50) for every item in the list.
// do not treat as linear: log10 of DC50, unit nM

Exercise: Note down log10(DC50) recorded for Cc1ccc2[nH]c(CNc3nn(C4CCN(C)CC4)c4nc(C5CC5)cnc34)nc2c1 [Example 6]
Key: 1.12

Exercise: Note down log10(DC50) recorded for Cc1c(Cl)ccc2[nH]c(CNc3nn(C4CCN(C)CC4)c4nc(C5CC5)cnc34)nc12 [Example 21]
Key: 1.46

Exercise: Note down log10(DC50) recorded for Cc1cnc2c(NCc3nc4ccccc4[nH]3)nn(C3CCN(C)CC3)c2n1 [Example 77]
Key: 2.10

Exercise: Note down log10(DC50) recorded for Cc1c(F)ccc2[nH]c(CNc3nn(C4CCN(C)CC4)c4nc(C5CC5)cnc34)nc12 [Example 26]
Key: 1.20

Exercise: Note down log10(DC50) recorded for COCCC(C)n1nc(NCc2nc3ccccc3[nH]2)c2ncc(C3CC3)nc21 (single isomer, unassigned; (+)) [Example 59]
Key: 1.51

Exercise: Note down log10(DC50) recorded for COCCC(C)n1nc(NCc2nc3ccccc3[nH]2)c2ncc(C3CC3)nc21 (racemic) [Example 57]
Key: 2.23

Exercise: Note down log10(DC50) recorded for CN1CCC(n2nc(NCc3nc4c(F)cccc4[nH]3)c3ncc(C4CC4)nc32)CC1 [Example 3]
Key: 0.28

Exercise: Note down log10(DC50) recorded for Fc1cccc2[nH]c(CNc3nn(C4CCOCC4)c4nc(C5CC5)cnc34)nc12 [Example 23]
Key: 1.50

Exercise: Note down log10(DC50) recorded for O[C@H]1C[C@@H](Cn2nc(NCc3nc4ccccc4[nH]3)c3ncc(C4CC4)nc32)C1 [Example 71]
Key: 1.44

Exercise: Note down log10(DC50) recorded for OCC1(Cn2nc(NCc3nc4ccccc4[nH]3)c3ncc(C4CC4)nc32)CCC1 [Example 74]
Key: 1.18

Exercise: Note down log10(DC50) recorded for OC[C@H]1C[C@@H](n2nc(NCc3nc4ccccc4[nH]3)c3ncc(C4CC4)nc32)C1 [Example 47]
Key: 1.36

Exercise: Note down log10(DC50) recorded for c1ccc2[nH]c(CNc3nn(C4CCC4)c4nc(C5CC5)cnc34)nc2c1 [Example 49]
Key: 1.47

Exercise: Note down log10(DC50) recorded for CN1CCC(n2nc(NCc3nc4cc(Cl)c(F)cc4[nH]3)c3ncc(C4CC4)nc32)CC1 [Example 29]
Key: 1.24

Exercise: Note down log10(DC50) recorded for c1ccc2[nH]c(CNc3nn(C4CCCC4)c4nc(C5CC5)cnc34)nc2c1 [Example 39]
Key: 1.58

Exercise: Note down log10(DC50) recorded for O[C@H]1C[C@H](Cn2nc(NCc3nc4ccccc4[nH]3)c3ncc(C4CC4)nc32)C1 [Example 70]
Key: 1.03

Exercise: Note down log10(DC50) recorded for Fc1ccc2[nH]c(CNc3nn(C4CCOCC4)c4nc(C5CC5)cnc34)nc2c1 [Example 53]
Key: 1.51

Exercise: Note down log10(DC50) recorded for CN1CCCC(n2nc(NCc3nc4ccccc4[nH]3)c3ncc(C4CC4)nc32)CC1 (single isomer, unassigned) [Example 38]
Key: 1.12

Exercise: Note down log10(DC50) recorded for Cc1cccc2[nH]c(CNc3nn(C4CCOCC4)c4nc(C5CC5)cnc34)nc12 [Example 33]
Key: 0.94

Exercise: Note down log10(DC50) recorded for c1ccc2[nH]c(CNc3nn(C4CCNCC4)c4nc(C5CC5)cnc34)nc2c1 [Example 12]
Key: 0.93

Exercise: Note down log10(DC50) recorded for COCCC(C)n1nc(NCc2nc3ccccc3[nH]2)c2ncc(C3CC3)nc21 (single isomer, unassigned; (-)) [Example 58]
Key: 1.43

Exercise: Note down log10(DC50) recorded for CN1CCC(n2nc(NCc3nc4ccccc4[nH]3)c3ncc(C4CC4)nc32)C1 (single isomer, unassigned) [Example 79]
Key: 1.61

Exercise: Note down log10(DC50) recorded for COc1cccc2[nH]c(CNc3nn(C4CCN(C)CC4)c4nc(C5CC5)cnc34)nc12 [Example 2]
Key: 0.78

Exercise: Note down log10(DC50) recorded for c1ccc2[nH]c(CNc3nn(C4CC5(COC5)C4)c4nc(C5CC5)cnc34)nc2c1 [Example 54]
Key: 1.12

Exercise: Note down log10(DC50) recorded for COc1cccc2[nH]c(CNc3nn(C4CCOCC4)c4nc(C5CC5)cnc34)nc12 [Example 24]
Key: 1.08
